Target: T1, human neonatal Fc receptor (hFcRn) (human, UniProt P55899 24-290; P61769 21-119)
T1 construct: Biotinylated in the ELISA, Octet and yeast assays; also called human FcRn; huFcRn
T1 sequence (P55899 24-290 limits assumed, chain 1 of 2): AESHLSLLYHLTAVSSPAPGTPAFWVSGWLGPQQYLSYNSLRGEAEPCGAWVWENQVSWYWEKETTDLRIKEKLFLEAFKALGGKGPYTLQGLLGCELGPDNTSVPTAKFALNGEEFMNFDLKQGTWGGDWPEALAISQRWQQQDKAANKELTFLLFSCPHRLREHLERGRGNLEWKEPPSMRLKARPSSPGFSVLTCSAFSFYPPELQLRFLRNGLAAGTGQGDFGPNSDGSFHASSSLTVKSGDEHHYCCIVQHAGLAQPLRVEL
T1 sequence (P61769 21-119 limits assumed, chain 2 of 2): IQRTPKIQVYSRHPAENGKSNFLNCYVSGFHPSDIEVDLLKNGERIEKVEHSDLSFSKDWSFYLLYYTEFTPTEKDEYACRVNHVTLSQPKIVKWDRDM
Experiment: phage ELISA pH 7.4;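 note: higher score means stronger binding and above about 3 to 5 exceeds background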
reported_metric: ELISA score
Give the figure only, with no unit attached.

Examples with their reported ELISA score follow.
INPUT: Given the entry L6B isolate with insertion SEQ ID NO: 455 (other) EPKSCDKTHTCPPCPAPELLGGPSVFLFPPKPKDTLMISRTPEVTCVVVDVSHEDPEVKFNWYVDGVEVHNAKTKPREEQYNSTYRVVSVLTVLHQDWLNGKEYKCKVSNKALPAPIEKTISKAKGQPREPQVYTLPPSRDELGGCVSAATSRTCGGTKNQVSLTCLVKGFYPSDIAVEWESNGQPENNYKTTPPVLDSDGSFFLYSKLTVDKSRWQQGNVFSCSVMHEALHNHYTQKSLSLSPGK , report its measured ELISA score.
OUTPUT: 0.3

INPUT: Given the entry L5 isolate with insertion SEQ ID NO: 486 (other) EPKSCDKTHTCPPCPAPELLGGPSVFLFPPKPKDTLMISRTPEVTCVVVDVSHEDPEVKFNWYVDGVEVHNAKTKPREEQYNSTYRVVSVLTVLHQDWLNGKEYKCKVSNKALPAPIEKTISKAKGQPREPQVYTLPPSRDELTKNQVSLTCLVKGFYPSDIAVEWESNGGCDTIGWFCGGGQPENNYKTTPPVLDSDGSFFLYSKLTVDKSRWQQGNVFSCSVMHEALHNHYTQKSLSLSPGK , report its measured ELISA score.
OUTPUT: 1.4

INPUT: Given the entry L5 isolate with insertion SEQ ID NO: 423 (other) EPKSCDKTHTCPPCPAPELLGGPSVFLFPPKPKDTLMISRTPEVTCVVVDVSHEDPEVKFNWYVDGVEVHNAKTKPREEQYNSTYRVVSVLTVLHQDWLNGKEYKCKVSNKALPAPIEKTISKAKGQPREPQVYTLPPSRDELTKNQVSLTCLVKGFYPSDIAVEWESNGGCNHEETFCGGGQPENNYKTTPPVLDSDGSFFLYSKLTVDKSRWQQGNVFSCSVMHEALHNHYTQKSLSLSPGK , report its measured ELISA score.
OUTPUT: 0.4

INPUT: Given the entry L5 isolate with insertion SEQ ID NO: 443 (other) EPKSCDKTHTCPPCPAPELLGGPSVFLFPPKPKDTLMISRTPEVTCVVVDVSHEDPEVKFNWYVDGVEVHNAKTKPREEQYNSTYRVVSVLTVLHQDWLNGKEYKCKVSNKALPAPIEKTISKAKGQPREPQVYTLPPSRDELTKNQVSLTCLVKGFYPSDIAVEWESNGGCSRVFKYCGGGQPENNYKTTPPVLDSDGSFFLYSKLTVDKSRWQQGNVFSCSVMHEALHNHYTQKSLSLSPGK , report its measured ELISA score.
OUTPUT: 0.7

INPUT: Given the entry L5 isolate with insertion SEQ ID NO: 415 (other) EPKSCDKTHTCPPCPAPELLGGPSVFLFPPKPKDTLMISRTPEVTCVVVDVSHEDPEVKFNWYVDGVEVHNAKTKPREEQYNSTYRVVSVLTVLHQDWLNGKEYKCKVSNKALPAPIEKTISKAKGQPREPQVYTLPPSRDELTKNQVSLTCLVKGFYPSDIAVEWESNGGCYITQKLCGGGQPENNYKTTPPVLDSDGSFFLYSKLTVDKSRWQQGNVFSCSVMHEALHNHYTQKSLSLSPGK , report its measured ELISA score.
OUTPUT: 0.7

---
INPUT: Given the entry L5 isolate with insertion SEQ ID NO: 488 (other) EPKSCDKTHTCPPCPAPELLGGPSVFLFPPKPKDTLMISRTPEVTCVVVDVSHEDPEVKFNWYVDGVEVHNAKTKPREEQYNSTYRVVSVLTVLHQDWLNGKEYKCKVSNKALPAPIEKTISKAKGQPREPQVYTLPPSRDELTKNQVSLTCLVKGFYPSDIAVEWESNGGCGPYKTECGGGQPENNYKTTPPVLDSDGSFFLYSKLTVDKSRWQQGNVFSCSVMHEALHNHYTQKSLSLSPGK , report its measured ELISA score.
OUTPUT: 0.9
